Test system: Escherichia coli
assay summary: Antibacterial activity against Escherichia coli INSRA5924 isolates expressing CTX-M-32 and TEM-1B enzymes by agar dilution method
Format: functional
property name: MIC (µg/mL)
Number in µg/mL, nothing else.

Entry COc1cc(Cc2cnc(N)nc2N)cc(OC)c1OC ; MIC = 0.25

Entry CO[C@@]1(NC(=O)Cc2cccs2)C(=O)N2C(C(=O)O)=C(COC(N)=O)CS[C@@H]21 ; MIC = 16

Entry C[C@H]1[C@H](NC(=O)/C(=N\OC(C)(C)C(=O)O)c2csc(N)n2)C(=O)N1S(=O)(=O)O ; MIC = 64

Entry CO/N=C(\C(=O)N[C@@H]1C(=O)N2C(C(=O)O)=C(COC(C)=O)CS[C@H]12)c1csc(N)n1 (stereo in doubt) ; MIC = 256

* * *

Give measured MIC for each item. Keep answers brief.
Tested on: Escherichia coli
assay summary: Antibacterial activity against Escherichia coli DH5 alpha-URA5924 isolates expressing CTX-M-32 by agar dilution method
Assay type: functional
Number in µg/mL, nothing else.

Entry CO/N=C(\C(=O)N[C@@H]1C(=O)N2C(C(=O)[O-])=C(C[N+]3(C)CCCC3)CS[C@H]12)c1csc(N)n1 ; MIC = 4

Entry C[C@H]1[C@H](NC(=O)/C(=N\OC(C)(C)C(=O)O)c2csc(N)n2)C(=O)N1S(=O)(=O)O ; MIC = 64

Entry CCN1CCN(C(=O)N[C@@H](C(=O)N[C@@H]2C(=O)N3C(C(=O)O)=C(CSc4nnnn4C)CS[C@H]23)c2ccc(O)cc2)C(=O)C1=O ; MIC = 64

Entry CC1(C)S[C@@H]2[C@H](/N=C\N3CCCCCC3)C(=O)N2[C@H]1C(=O)O ; MIC = 0.5

* * *

Give measured MIC for each item. Keep answers brief.
System: Escherichia coli
assay summary: Antibacterial activity against Escherichia coli DH5 alpha isolates by agar dilution method
Type: functional
Number in µg/mL, nothing else.

Bench note, Escherichia coli: CO/N=C(\C(=O)N[C@@H]1C(=O)N2C(C(=O)O)=C(COC(C)=O)CS[C@H]12)c1csc(N)n1 (stereo in doubt) [CEFOTAXIME] , MIC reads 0.06

Bench note, Escherichia coli: CC(=O)OCC1=C(C(=O)O)N2C(=O)[C@@H](NC(=O)Cc3cccs3)[C@H]2SC1 [CEPHALOTHIN] , MIC reads 8

* * *

Test system: Escherichia coli
assay summary: Antibacterial activity against CTX-M group 9 enzyme producing Escherichia coli isolates by broth microdilution method
Type: functional
Give measured MIC90 for each item. Keep answers brief.

Entry C[C@@H](O)[C@H]1C(=O)N2C(C(=O)O)=C(SCCNC=N)C[C@H]12 [IMIPENEM ANHYDROUS] ; MIC90 = ≤ 0.5 µg/mL

Entry CC1COc2c(N3CCN(C)CC3)c(F)cc3c(=O)c(C(=O)O)cn1c23 (stereo not given) [OFLOXACIN] ; MIC90 = > 4 µg/mL

Entry C[C@H]1[C@H](NC(=O)/C(=N\OC(C)(C)C(=O)O)c2csc(N)n2)C(=O)N1S(=O)(=O)O [AZTREONAM] ; MIC90 = > 16 µg/mL

Entry CO[C@@]1(NC(=O)Cc2cccs2)C(=O)N2C(C(=O)O)=C(COC(N)=O)CS[C@@H]21 [CEFOXITIN] ; MIC90 = > 16 µg/mL

Entry CO/N=C(\C(=O)N[C@@H]1C(=O)N2C(C(=O)O)=C(COC(C)=O)CS[C@H]12)c1csc(N)n1 (stereo in doubt) [CEFOTAXIME] ; MIC90 = > 32 µg/mL
